Items are presented alongside their recorded pIC50.
# System: HT-29 (colorectal adenocarcinoma)
# METHOD_NOTES: Cell growth assay (Trypan blue), HT-29 cells
# Format: cell-based, human
# PARTICULARS: pure enantiomers, 72 h
pIC50: −log10 of the molar value.

Look over these answered cases.
Cc1ccc2c(n1)[C@@H](/N=C/c1ccccn1)CCC2 [(S)-3a] : < 4.70
Cc1ccc(O)c(CN[C@H]2CCCc3ccc(C)nc32)c1 [(S)-2b] : < 4.70

Ask: Which pIC50 is reported for this compound? Cc1ccc2c(n1)[C@@H](/N=C/c1ncc[nH]1)CCC2 [(S)-5a]
Reply: < 4.70

###

# Test system: MSTO-211H (biphasic mesothelioma)
# METHOD_NOTES: Cell growth assay (Trypan blue), MSTO-211H cells
# Format: cell-based, human
# PARTICULARS: Homo sapiens, MSTO-211H, 72 h, racemic compounds; Trypan blue
pIC50: −log10 of the molar value.
MEASURED_ATTRIBUTE: pIC50

Cc1ccc2c(n1)C(/N=C/c1cccc(C)c1O)CCC2 (stereo not drawn) : 4.16
Cc1ccc(O)c(CNC2CCCc3ccc(C)nc32)c1 (racemic) : 4.46
Cc1ccc2c(n1)C(NCc1ccccn1)CCC2 (stereo not drawn) : 4.82

1: Cc1ccc2c(n1)C(/N=C/c1cn(C)cn1)CCC2 (stereo not drawn)
2: Cc1ccc2c(n1)C(NCc1cc3c4c(c1O)CCCN4CCC3)CCC2 (stereo not drawn)
Ask: Lab notebook, comparison: 1 versus 2 , higher pIC50 goes to which? I would appreciate it if you answered with the label of your choice.
Reply: 1
(1: 4.85, 2: 4.11)

###

Entries and their melting point values follow.

Solved cases (3 shown):
Cc1ccc2c(n1)C(NCc1cn(C)cn1)CCC2 (stereo not drawn) [Compound 4b] : 90.3 to 92.2 °C
Cc1ccc2c(n1)C(NCc1cccc(C)c1O)CCC2 (stereo not drawn) [Compound 1b] : 89.2 to 91.1 °C
Cc1ccc2c(n1)C(NCc1ccccn1)CCC2 (stereo not drawn) [Compound 3b] : 87.8 to 89.2 °C

Ask: Dear colleague, I am looking for the recorded melting point of the following molecule: Cc1ccc2c(n1)C(/N=C/c1cccc(C)c1O)CCC2 (stereo not drawn) [Compound 1a]
Reply: 102.2 to 103.8 °C

###

# System: MSTO-211H (biphasic mesothelioma)
# METHOD_NOTES: Cell growth assay (Trypan blue), MSTO-211H cells
# Assay type: cell-based, human
# PARTICULARS: pure enantiomers
MEASURED_ATTRIBUTE: cytotoxic effect on MSTO-211H (in words)

Cc1ccc(O)c(CN[C@@H]2CCCc3ccc(C)nc32)c1 [(R)-2b] : inactive
Cc1ccc(O)c(CN[C@H]2CCCc3ccc(C)nc32)c1 [(S)-2b] : inactive

###

# Tested on: MSTO-211H (biphasic mesothelioma)
# METHOD_NOTES: Cell growth assay (Trypan blue), MSTO-211H cells
# Assay type: cell-based, human
# PARTICULARS: Homo sapiens, MSTO-211H, 72 h, pure enantiomers; Trypan blue
pIC50: −log10 of the molar value.
MEASURED_ATTRIBUTE: pIC50

Cc1ccc2c(n1)[C@H](/N=C/c1ncc[nH]1)CCC2 [(R)-5a] : 4.82
Cc1ccc2c(n1)[C@H](/N=C/c1ccccn1)CCC2 [(R)-3a] : 4.83

###

# Tested on: A2780 (ovarian carcinoma)
# METHOD_NOTES: Cell growth assay (Trypan blue), A2780 cells
# Type: cell-based, human
# PARTICULARS: pure enantiomers; 72 h; Trypan blue
pIC50: −log10 of the molar value.
MEASURED_ATTRIBUTE: pIC50

Cc1ccc(O)c(CN[C@H]2CCCc3ccc(C)nc32)c1 [(S)-2b] : 4.94
Cc1ccc2c(n1)[C@@H](/N=C/c1ccccn1)CCC2 [(S)-3a] : 4.94

1: Cc1ccc2c(n1)[C@@H](/N=C/c1ncc[nH]1)CCC2 [(S)-5a]
2: Cc1ccc2c(n1)[C@H](/N=C/c1ncc[nH]1)CCC2 [(R)-5a]
Ask: Could you please tell me which of these two has the higher pIC50: 1 or 2 ? Kindly give the label for the entry you pick.
Reply: 2
(2: 5.27, 1: 4.76)

###

# Tested on: HT-29 (colorectal adenocarcinoma)
# METHOD_NOTES: Cell growth assay (Trypan blue), HT-29 cells
# Type: cell-based, human
# PARTICULARS: Homo sapiens, HT-29, pure enantiomers, 72 h
# Procedure: A2780 (human ovarian carcinoma) and HT-29 (human colorectal adenocarcinoma) were grown in RPMI 1640 (Sigma Chemical Co., St. Louis, MO, USA), and MSTO-211H (human biphasic mesothelioma) were grown in RPMI 1640 (Sigma Chemical Co.) supplemented with 2.38 g/L Hepes, 0.11 g/L pyruvate sodium, and 2.5 g/L glucose. […]
Let's look at some compounds and their measured IC50.

Some solved entries appear below for comparison.
Cc1ccc2c(n1)[C@H](/N=C/c1ccccn1)CCC2 [(R)-3a] : > 20 µM
Cc1ccc(O)c(CN[C@@H]2CCCc3ccc(C)nc32)c1 [(R)-2b] : > 20 µM

From here, focus on the item given below.
Ask: Identify the measured IC50 of Cc1ccc2c(n1)[C@H](/N=C/c1ncc[nH]1)CCC2 [(R)-5a] for HT-29 (colorectal adenocarcinoma).
Reply: > 20 µM

###

# System: MSTO-211H (biphasic mesothelioma)
# METHOD_NOTES: Cell growth assay (Trypan blue), MSTO-211H cells
# Type: cell-based, human
# PARTICULARS: Homo sapiens, MSTO-211H, 72 h, racemic compounds; Trypan blue
MEASURED_ATTRIBUTE: IC50 (µM)

// below: answered compounds
Cc1ccc2c(n1)C(/N=C/c1cc3c4c(c1O)CCCN4CCC3)CCC2 (stereo not shown) : 25
Cc1ccc(O)c(/C=N/C2CCCc3ccc(C)nc32)c1 (stereo not shown) : 95
Cc1ccc2c(n1)C(/N=C/c1ncc[nH]1)CCC2 (racemic) : 31
Cc1ccc2c(n1)C(NCc1cccc(C)c1O)CCC2 (stereo not shown) : 28

1: Cc1ccc2c(n1)C(/N=C/c1ccccn1)CCC2 (racemic)
2: Cc1ccc2c(n1)C(NCc1ncc[nH]1)CCC2 (stereo not shown)
Ask: Please state the entry with greater IC50 among 1 and 2 . Reply briefly: the label of your chosen item.
Reply: 2
(2: 44 µM, 1: 30 µM)

###

MEASURED_ATTRIBUTE: melting point

Cc1ccc2c(n1)C(/N=C/c1ccccn1)CCC2 (racemic) [Compound 3a] : 102.8 to 104.3 °C
Cc1ccc2c(n1)C(NCc1ncc[nH]1)CCC2 (centres unmarked) [Compound 5b] : 86.7 to 88.1 °C
Cc1ccc2c(n1)C(/N=C/c1ncc[nH]1)CCC2 (racemic) [Compound 5a] : 101.2 to 102.6 °C
Cc1ccc(O)c(/C=N/C2CCCc3ccc(C)nc32)c1 (centres unmarked) [Compound 2a] : 101.8 to 103.4 °C
Cc1ccc(O)c(CNC2CCCc3ccc(C)nc32)c1 (racemic) [Compound 2b] : 89.5 to 90.8 °C
Cc1ccc2c(n1)C(/N=C/c1cn(C)cn1)CCC2 (centres unmarked) [Compound 4a] : 103.2 to 104.5 °C

Ask: Sample Cc1ccc2c(n1)C(/N=C/c1cc3c4c(c1O)CCCN4CCC3)CCC2 (centres unmarked) [Compound 6a] — what was its melting point?
Reply: 104.2 to 105.8 °C

Ask: Which value of melting point has been reported for Cc1ccc2c(n1)C(NCc1cc3c4c(c1O)CCCN4CCC3)CCC2 (centres unmarked) [Compound 6b] in the records?
Reply: 94.3 to 95.5 °C
